- Tested on: NCI/ADR-RES ovarian
- Procedure details: NCI tumour cell line growth inhibition, 48 h
Endpoint name: TGI

{"Smiles notation": "O=C(CCc1ccc(O)cc1)NCCc1cccc(O)c1", "Result": "> 50 µM"}

In plain terms, `O=C1C=CC(=O)C(c2cc(-c3ccc(Cl)cc3)nn2-c2ccccc2)=C1` has a documented TGI of 54.7 µM

In plain terms, `CSC(N)=Nc1cccc2ccccc12` has a documented TGI of > 10 µM

In plain terms, `O=C1C[C@@H](c2ccc(O)cc2)[C@@]2(O1)C(=O)O[C@H]([C@@H](O)CO)[C@@H]2O` has a documented TGI of > 100 µM

----------
- System: COLO 205 colon
Choose the fitting class; nothing outside active, inactive is accepted.

Completed entries (count: 5):
{"Compound": "CC[C@H](Nc1cc(C)nc(N)n1)c1nc2cccc(NCc3ccc(C(=O)NO)cc3)c2c(=O)n1-c1ccccc1", "Target or system": "COLO 205 colon", "Discrete label": "inactive"}
{"Compound": "Cc1nc2ccccn2c1NC(=O)NNC(=S)Nc1ccc(Cl)cc1", "Target or system": "COLO 205 colon", "Discrete label": "inactive"}
{"Compound": "COc1ccc2c(c1)SC1=NNC(Cl)C(=O)N12 (stereo not drawn)", "Target or system": "COLO 205 colon", "Discrete label": "inactive"}
{"Compound": "CCOC(=O)Nc1nc2cc(OC)c(OC)c(OC)c2s1", "Target or system": "COLO 205 colon", "Discrete label": "inactive"}
{"Compound": "CC(=O)O[C@H]1C(=O)[C@@]2(C)[C@H]([C@H](OC(=O)c3ccccc3)[C@]3(O)C[C@H](OC(=O)[C@H](OC(=O)OC[C@@H]4COC(C)(C)O4)[C@@H](NC(=O)c4ccccc4)c4ccccc4)C(C)=C1C3(C)C)[C@]1(OC(C)=O)CO[C@@H]1C[C@@H]2O", "Target or system": "COLO 205 colon", "Discrete label": "active"}

Please indicate how the test categorized `COc1cccc2c(Nc3ccc(C(=O)O)cc3)cc(-c3ccccc3)nc12` . inactive

Please indicate how the test categorized `COc1cc(C(=O)/C=C/c2c(C)n([O-])c3ccc(C(F)(F)F)cc3[n+]2=O)cc(OC)c1OC` . inactive

Please indicate how the test categorized `O=C(/C=C/c1cccc(O)c1)c1cccc(-n2cc(-c3ccc(Cl)cc3)[nH]c2=O)c1` . inactive

----------
The entries below come with measured TGI values attached.
- Tested on: HCT-15 colon
- Procedure details: NCI tumour cell line growth inhibition, 48 h
Answer format: numeric, µM implied, no suffix.

Known TGI results, listed for orientation:
{"Compound": "CC#CC#Cc1cccc(=O)o1", "Endpoint name": "TGI", "Quantitative result": 30.2}
{"Compound": "COC(=O)c1c(O)c2c(c3c1OC(C)(C)CC3)OC(C)(C)CC2", "Endpoint name": "TGI", "Quantitative result": 35.5}

Next compound, please.
In plain terms, O=C1CC(c2ccccc2Cl)C2(C(=O)NC(=S)NC2=O)C(c2ccccc2Cl)C1 (stereo unspecified) has a documented TGI of 53.6

----------
- System: MALME-3M melanoma
- Procedure details: NCI tumour cell line growth inhibition, 48 h
The entries below come with measured TGI values attached.

{"Compound": "COC(=O)C(C(=O)C(=O)Nc1nc(=S)[nH][nH]1)c1csc(N)n1 (configuration not stated)", "TGI": "> 100 µM"}
{"Compound": "Brc1ccc2c(C3CN[C@@H](c4c[nH]c5cc(Br)ccc45)CN3)c[nH]c2c1 (some centres not stated)", "TGI": "26.5 µM"}
{"Compound": "C/C(=N/NC(=S)N1CCCCC1)c1cccc(/C(C)=N\\NC(=S)N2CCCCC2)n1", "TGI": "4.58 µM"}
{"Compound": "Cc1cc(C23OC4COC(C)(C)OC4C2OC(C)(C)O3)nc2ccccc12 (configuration not stated)", "TGI": "> 100 µM"}
{"Compound": "CCCCCc1cccc(=O)o1", "TGI": "> 100 µM"}

In plain terms, `Cn1cc(C2=C(c3cn(C)c4ccc(OCc5ccccc5)cc34)C(=O)NC2=O)c2ccccc21` has a documented TGI of > 25 µM

In plain terms, `CC(C)OC(=O)Nc1ccc(-c2nc(-c3cccc(OCCN4CCOCC4)c3)c(-c3ccnc(Br)c3)[nH]2)cc1` has a documented TGI of 3.39 µM

In plain terms, `C/C(Cc1ccc(Cl)cc1)=C(\c1ccc(OCCN2CCCCCC2)cc1)c1ccc(OC(=O)c2ccccc2)cc1` has a documented TGI of 6.56 µM

In plain terms, `CC/C(=C(\c1ccc(Cl)cc1)c1ccc(OCCN2CCCCC2)cc1)c1ccc(O)cc1` has a documented TGI of 3.33 µM

In plain terms, C=C1CC(Cn2cc(C)c(=O)[nH]c2=O)(c2ccc(Cl)cc2)OC1=O (configuration not stated) has a documented TGI of 4.89 µM

In plain terms, `N#CC(C#N)=C(C(C#N)C#N)C(C#N)C#N` has a documented TGI of > 100 µM

In plain terms, `CC(=O)c1c(C)cn(S(=O)(=O)NC(=O)Nc2nncs2)c1C` has a documented TGI of > 100 µM
